- tgt: Kv1.1 (Homo sapiens, UniProt Q09470)
- Construct: expressed in transfected cells
- Sequence (Q09470 whole entry): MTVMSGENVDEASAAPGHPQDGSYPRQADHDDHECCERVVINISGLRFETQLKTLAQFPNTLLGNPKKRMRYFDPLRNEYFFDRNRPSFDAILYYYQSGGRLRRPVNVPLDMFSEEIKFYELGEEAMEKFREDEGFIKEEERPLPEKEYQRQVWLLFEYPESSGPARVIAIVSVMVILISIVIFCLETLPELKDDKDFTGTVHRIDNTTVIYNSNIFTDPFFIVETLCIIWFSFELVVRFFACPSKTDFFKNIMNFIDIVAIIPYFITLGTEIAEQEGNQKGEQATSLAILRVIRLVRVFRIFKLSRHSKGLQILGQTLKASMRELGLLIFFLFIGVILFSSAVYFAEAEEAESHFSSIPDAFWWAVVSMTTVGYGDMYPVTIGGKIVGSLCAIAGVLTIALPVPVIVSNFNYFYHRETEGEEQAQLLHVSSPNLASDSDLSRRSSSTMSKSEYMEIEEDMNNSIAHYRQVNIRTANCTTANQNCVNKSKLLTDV
- protocol.description: Patch clamp assay (QPatch), Kv1.1
- Format: cell-based
- experimental.context: ratio of IC50 Kv1.1/Kv1.3

[
  {
    "substance": "H-P[Nle]D[Nle]RC(1)SASVEC(2)KQKC(3)LKAIGC(4)IFGKC(1)[Nle]NKKC(2)KC(3)YPC(4)-NH2 [Peptide 85]",
    "Selectivity Kv1.1/Kv1.3": ">4800"
  },
  {
    "substance": "H-NIDMRC(1)SASVEC(2)KQKC(3)LKAIGSIFGKC(1)MNKKC(2)KC(3)YPR-OH [Peptide 9]",
    "Selectivity Kv1.1/Kv1.3": ">6800"
  },
  {
    "substance": "H-NMDMRC(1)SASVEC(2)KQKC(3)LKAIGSIFGKC(1)MNKKC(2)HC(3)YPR-NH2 [Peptide 38]",
    "Selectivity Kv1.1/Kv1.3": ">16100"
  },
  {
    "substance": "H-NMDMRC(1)SASREC(2)KQKC(3)LKAIGSIFGKC(1)MNKKC(2)KC(3)YPR-NH2 [Peptide 28]",
    "Selectivity Kv1.1/Kv1.3": ">25900"
  },
  {
    "substance": "H-NMDMRC(1)SASVEC(2)KQKC(3)LKAIGSIFGKC(1)MNKKC(2)KC(3)YPR-OH [Peptide 3]",
    "Selectivity Kv1.1/Kv1.3": ">11300"
  },
  {
    "substance": "H-N[Nle]D[Nle]RC(1)SHSVEC(2)KQKC(3)LKAIGSIFGKC(1)[Nle]NKKC(2)KC(3)YPR-NH2 [Peptide 48]",
    "Selectivity Kv1.1/Kv1.3": ">5600"
  },
  {
    "substance": "H-NMDMRC(1)SASVEC(2)KQKC(3)KKAIGSIFGKC(1)MNKKC(2)KC(3)YPR-NH2 [Peptide 20]",
    "Selectivity Kv1.1/Kv1.3": ">13500"
  },
  {
    "substance": "H-N[Nle]D[Nle]RC(1)SASVEC(2)KQKC(3)LKAIGSIFGKC(1)[Nle]NKKC(2)KC(3)YPR-NH2 [Peptide 41]",
    "Selectivity Kv1.1/Kv1.3": ">11600"
  },
  {
    "substance": "H-RC(1)SASVEC(2)KQKC(3)LKAIGSIFGKC(1)[Nle]NKKC(2)KC(3)YPR-NH2 [Peptide 111]",
    "Selectivity Kv1.1/Kv1.3": ">7600"
  },
  {
    "substance": "H-NMDMRC(1)SASVEC(2)KQKC(3)LKAIGSIFGKC(1)MNKKC(2)KC(3)YPRRRTA-NH2 [Peptide 24]",
    "Selectivity Kv1.1/Kv1.3": 4280
  },
  {
    "substance": "H-NMDMRC(1)SASVEC(2)AQKC(3)LKAIGSIFGKC(1)MNKKC(2)KC(3)YPR-NH2 [Peptide 31]",
    "Selectivity Kv1.1/Kv1.3": ">22000"
  },
  {
    "substance": "H-NMDMRC(1)SASVEC(2)KQKC(3)LKAYGSIFGKC(1)MNKKC(2)KC(3)YPR-NH2 [Peptide 59]",
    "Selectivity Kv1.1/Kv1.3": ">8800"
  },
  {
    "substance": "H-S[Nle]D[Nle]RC(1)SASVEC(2)AQSC(3)LKAIGSIFGKC(1)MNKKC(2)KC(3)YPR-NH2 [Peptide 81]",
    "Selectivity Kv1.1/Kv1.3": ">14600"
  },
  {
    "substance": "H-C(1)SASVEC(2)KQKC(3)LKAIGSIFGKC(1)MNKKC(2)KC(3)YPR-OH [Peptide 124]",
    "Selectivity Kv1.1/Kv1.3": ">1400"
  },
  {
    "substance": "H-QMDMRC(1)SASVEC(2)KQKC(3)LKAIGSIFGKC(1)MNKKC(2)KC(3)YPR-OH [Peptide 1]",
    "Selectivity Kv1.1/Kv1.3": ">7900"
  },
  {
    "substance": "H-S[Nle]D[Nle]RC(1)SASVEC(2)GQKC(3)LKAIGSIFGKC(1)MNKKC(2)KC(3)YPR-NH2 [Peptide 73]",
    "Selectivity Kv1.1/Kv1.3": ">27700"
  },
  {
    "substance": "H-NMDMRC(1)SASVQC(2)KQKC(3)LKAIGSIFGKC(1)MNKKC(2)KC(3)YPR-NH2 [Peptide 29]",
    "Selectivity Kv1.1/Kv1.3": ">15200"
  },
  {
    "substance": "H-NMDMRC(1)SASVEC(2)KQKC(3)LAIGSIFGKC(1)MNKKC(2)KC(3)YPR-NH2 [Peptide 55]",
    "Selectivity Kv1.1/Kv1.3": ">1200"
  },
  {
    "substance": "Ac-SKC(1)SASVEC(2)KQKC(3)LKAIGSIFGKC(1)[Nle]NKKC(2)KC(3)YPR-NH2 [Peptide 113]",
    "Selectivity Kv1.1/Kv1.3": ">3000"
  },
  {
    "substance": "H-NMDMRC(1)SISVEC(2)KQKC(3)LKAIGSIFGKC(1)MNKKC(2)KC(3)YPR-NH2 [Peptide 27]",
    "Selectivity Kv1.1/Kv1.3": ">11800"
  },
  {
    "substance": "H-INVKCSLPQQCIKPCKDAGMRFGKCMNKKCRCYS-OH [Moka1, reference compound]",
    "Selectivity Kv1.1/Kv1.3": ">300"
  },
  {
    "substance": "H-[Nle]D[Nle]RC(1)SASVEC(2)KQKC(3)LKAIGSIFGKC(1)[Nle]NKKC(2)KC(3)YPR-OH [Peptide 97]",
    "Selectivity Kv1.1/Kv1.3": ">17800"
  },
  {
    "substance": "H-P[Nle]E[Nle]RC(1)SASVEC(2)AQKC(3)LAAIGSIFGKC(1)[Nle]NKKC(2)KC(3)YPR-OH [Peptide 107]",
    "Selectivity Kv1.1/Kv1.3": ">5500"
  },
  {
    "substance": "H-N[Nle]D[Nle]RC(1)SASKEC(2)KQKC(3)LKAIGSIFGKC(1)[Nle]NKKC(2)KC(3)YPR-NH2 [Peptide 64]",
    "Selectivity Kv1.1/Kv1.3": ">9600"
  },
  {
    "substance": "H-NMDMRC(1)SASVEC(2)KQKC(3)LYAIGSIFGKC(1)MNKKC(2)KC(3)YPR-NH2 [Peptide 54]",
    "Selectivity Kv1.1/Kv1.3": ">10300"
  },
  {
    "substance": "H-NMDMRC(1)SASVEC(2)KQLC(3)LKAIGSIFGKC(1)MNKKC(2)KC(3)YPR-NH2 [Peptide 19]",
    "Selectivity Kv1.1/Kv1.3": ">12700"
  },
  {
    "substance": "H-P[Nle]D[Nle]RC(1)SASVEC(2)KQKC(3)LKAIGSIFGKC(1)[Nle]NKKC(2)KC(3)YPR-NH2 [Peptide 42]",
    "Selectivity Kv1.1/Kv1.3": ">17100"
  },
  {
    "substance": "H-N[Nle]D[Nle]RC(1)SASVEC(2)KQKC(3)LKAIGSPFGKC(1)[Nle]NKKC(2)KC(3)YPR-NH2 [Peptide 63]",
    "Selectivity Kv1.1/Kv1.3": ">11600"
  },
  {
    "substance": "H-QMDMRC(1)SASVEC(2)KQKC(3)LKAIGRGFGKC(1)MNKKC(2)KC(3)YPR-OH [Peptide 2]",
    "Selectivity Kv1.1/Kv1.3": ">2000"
  },
  {
    "substance": "H-S[Nle]D[Nle]RC(1)SASVEC(2)KQKC(3)LKAIGSIFGKC(1)MNKKC(2)KC(3)[F(4-NH2)]PR-NH2 [Peptide 72]",
    "Selectivity Kv1.1/Kv1.3": ">12200"
  }
]

Data credit: patent US20260325605A1
